molecular target: human MGL from HeLa cells (Homo sapiens (Human), UniProt Q99685); assay: MGL in vitro activity assay ([glycerol-1,3-3H]-oleoyl glycerol hydrolysis, activated carbon filtration); assay type: biochemical; conditions: 300 nM [Glycerol-1,3-3H]-oleoyl glycerol, one hour
Sequence (Q99685 whole entry): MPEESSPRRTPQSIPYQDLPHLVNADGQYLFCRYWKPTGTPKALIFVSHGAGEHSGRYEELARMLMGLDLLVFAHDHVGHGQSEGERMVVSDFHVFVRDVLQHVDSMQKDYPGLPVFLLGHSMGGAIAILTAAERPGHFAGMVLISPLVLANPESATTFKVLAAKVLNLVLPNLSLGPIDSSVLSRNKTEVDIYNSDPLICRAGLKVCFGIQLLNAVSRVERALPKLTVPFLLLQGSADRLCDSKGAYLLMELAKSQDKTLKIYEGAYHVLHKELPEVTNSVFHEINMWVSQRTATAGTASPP
measure: IC50 (µM)

>  <compound>
Cc1ccc(C)c(OC2CCC3(CC2)CN(C(=O)[C@H]2C[C@@](C)(O)C2)C3)n1 [Example 429]

>  <subject.of.test>
human MGL from HeLa cells (Homo sapiens (Human), UniProt Q99685)

>  <IC50 (µM)>
0.019

$$$$
>  <compound>
Cc1ccc(OC2CCC3(CC2)CN(C(=O)[C@H]2C[C@@](C)(O)C2)C3)cc1Cl [Example 411]

>  <subject.of.test>
human MGL from HeLa cells (Homo sapiens (Human), UniProt Q99685)

>  <IC50 (µM)>
0.0091

$$$$
>  <compound>
COc1cccc(C2CCC3(C2)CN(C(=O)[C@H]2C[C@@](C)(O)C2)C3)c1C (mixture of isomers) [Example 13]

>  <subject.of.test>
human MGL from HeLa cells (Homo sapiens (Human), UniProt Q99685)

>  <IC50 (µM)>
0.159

$$$$
>  <compound>
Cn1cc(F)c2ccc(CC3CC4(C3)CN(C(=O)[C@H]3C[C@@](C)(O)C3)C4)nc21 [Example 293]

>  <subject.of.test>
human MGL from HeLa cells (Homo sapiens (Human), UniProt Q99685)

>  <IC50 (µM)>
0.01

$$$$

P: C[C@]1(O)C[C@@H](C(=O)N2CC3(CCC(Cc4ccc(C(F)F)cc4)CC3)C2)C1 [Example 162]
Q: Cc1cc(C2CC3(C2)CN(C(=O)[C@H]2C[C@@](C)(O)C2)C3)ccc1C(F)(F)F [Example 33]
Ask: Of P and Q , which shows the smaller IC50 value? Mark your answer with the label of the selected entry.
Result: P
(P: 0.029 µM, Q: 0.246 µM)
